assay: Stability in human liver microsomes; format: in vitro ADME; details: 37° C., NADPH
value-kind: percent of compound remaining after 60 min in human liver microsomes

molecule	value-measured
CN(c1ccc(-c2cc(-c3ccnc(C4CC4)c3)cs2)c(Cl)c1)S(C)(=O)=O	+++ (>60.1 = +++)
CC(C)(CO)c1cc(-c2csc(-c3ccc(NS(C)(=O)=O)cc3Cl)c2)ccn1	++ (30.1-60 = ++)
CC(C)(O)c1cc(-c2csc(-c3ccc(NC(=O)OC4CC4)cc3Cl)c2)ccn1	+++ (>60.1 = +++)
CC(C)(O)C(O)c1cc(-c2csc(-c3ccc(NS(C)(=O)=O)cc3Cl)c2)ccn1 (stereo not drawn)	+++ (>60.1 = +++)

What value of percent of compound remaining after 60 min in human liver microsomes has been recorded for this entry: CC(C)OC(=O)Nc1ccc(-c2cc(-c3ccnc(C(C)(C)CO)c3)cs2)c(Cl)c1
+++ (>60.1 = +++)

What value of percent of compound remaining after 60 min in human liver microsomes has been recorded for this entry: CC(C)S(=O)(=O)c1ccc(-c2cc(-c3ccnc(C(C)(C)C)c3)cs2)cc1
++ (30.1-60 = ++)

What value of percent of compound remaining after 60 min in human liver microsomes has been recorded for this entry: CC(C)(O)Cc1cc(-c2csc(-c3ccc(NS(C)(=O)=O)cc3Cl)c2)ccn1
+++ (>60.1 = +++)

What value of percent of compound remaining after 60 min in human liver microsomes has been recorded for this entry: CN(C(=O)OC1CC1)c1ccc(-c2cc(-c3ccnc(C4CC4)c3)cs2)c(Cl)c1
+++ (>60.1 = +++)

What value of percent of compound remaining after 60 min in human liver microsomes has been recorded for this entry: CS(=O)(=O)Nc1ccc(-c2cc(-c3ccnc4c3OCCO4)cs2)c(Cl)c1
+++ (>60.1 = +++)

What value of percent of compound remaining after 60 min in human liver microsomes has been recorded for this entry: CC(C)OC(=O)Nc1ccc(-c2cc(-c3ccnc(OC4CC4)c3)cs2)c(Cl)c1
+++ (>60.1 = +++)

---

tested on: SKMEL5; assay: Cancer cell growth inhibition; type: cell-based; details: Homo sapiens, SK-MEL-5; SKMEL5 (skin), 72 hr treatment
pIC50: −log10 of the molar value.
Listed here: items and their measured pIC50.

What value of pIC50 has been recorded for this entry: CS(=O)(=O)Nc1ccc(-c2cc(-c3ccnc4c3OCCO4)cs2)c(Cl)c1
> 5.00

What value of pIC50 has been recorded for this entry: CC(C)(CO)c1cc(-c2csc(-c3ccc(NS(C)(=O)=O)cc3Cl)c2)ccn1
> 5.00

What value of pIC50 has been recorded for this entry: CC(C)(O)Cc1cc(-c2csc(-c3ccc(NS(C)(=O)=O)cc3Cl)c2)ccn1
> 5.00

---

Listed here: items and their measured IC50.
system: HEK293; test: Cancer cell growth inhibition; format: cell-based; settings: Homo sapiens; HEK293 (kidney), 72 hr treatment

mol-smiles	value-measured
CS(=O)(=O)Nc1ccc(-c2cc(-c3ccnc4c3OCCO4)cs2)c(Cl)c1	< 10 µM
CC(C)(O)Cc1cc(-c2csc(-c3ccc(NS(C)(=O)=O)cc3Cl)c2)ccn1	< 10 µM

Moving on to the next compound.
What value of IC50 has been recorded for this entry: CC(C)(CO)c1cc(-c2csc(-c3ccc(NS(C)(=O)=O)cc3Cl)c2)ccn1
< 10 µM
